Values were extracted from patent US20150353495A1.

molecular target: JAK2 (Homo sapiens, UniProt O60674); construct: 5 μl of catalytic domain recombinant Kinase enzyme+Tyr peptide substrate (Invitrogen, CA); experiment: Z'-LYTE kinase assay JAK2
Sequence (O60674 849-1124 limits assumed): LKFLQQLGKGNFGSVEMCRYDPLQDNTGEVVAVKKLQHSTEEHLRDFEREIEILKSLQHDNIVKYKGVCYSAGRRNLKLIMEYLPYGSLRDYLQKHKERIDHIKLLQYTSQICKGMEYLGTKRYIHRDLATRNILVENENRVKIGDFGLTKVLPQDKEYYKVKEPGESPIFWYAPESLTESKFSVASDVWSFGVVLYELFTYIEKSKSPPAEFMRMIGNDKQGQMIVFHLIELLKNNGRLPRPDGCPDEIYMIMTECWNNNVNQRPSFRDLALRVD
pIC50: −log10 of the molar value.
compounds and their reported pIC50
measurement.label: pIC50

>>> print(df.to_string())
                     structure_smiles_string  measurement_label  recorded_result
 0  Cc1cc(Nc2cc(NCc3cccc4ccsc34)c(C(N)=O)cn2)ccc1C(=O)N1CCCC1              pIC50     7.00 to 8.00
 1  COC[C@@H](Nc1cc(Nc2ccc(C(=O)N(C)C)cc2)ncc1C(N)=O)c1ccccc1              pIC50     6.00 to 7.00
 2  NC(=O)c1cnc(Nc2cccc(OCCN3CCCC3)c2)cc1NCc1cccc(F)c1              pIC50     7.00 to 8.00
 3  CNC(=O)[C@H]1CCCN(c2ccc(Nc3cc(NCc4ccccc4)c(C(N)=O)cn3)cc2)C1              pIC50     6.00 to 7.00
 4  NC(=O)c1cnc(Nc2ccc(C3CCOCC3)cc2)cc1NCc1ccccc1F              pIC50     6.00 to 7.00
 5  CS(=O)(=O)Cc1ccc(Nc2cc(NCc3cccc(-c4ccncc4)c3)c(C(N)=O)cn2)cc1              pIC50     6.00 to 7.00
 6  NC(=O)c1cnc(Nc2ccc(C3CCNCC3)cc2)cc1NCc1cc(F)ccc1F              pIC50     7.00 to 8.00
 7  NC(=O)c1cnc(Nc2cccc(OCCN3CCOCC3)c2)cc1N[C@H](CO)c1ccccc1              pIC50     6.00 to 7.00
 8  COC(=O)N(C)c1ccc(Nc2cc(NCc3cccc(F)n3)c(C(N)=O)cn2)cc1              pIC50     6.00 to 7.00
 9  CN(C)S(=O)(=O)c1ccc(Nc2cc(NCC3CCCC3)c(C(N)=O)cn2)cc1              pIC50           < 6.00
10  CC(=O)N1CCC[C@H](CNc2cc(Nc3ccc(F)c(C(=O)N4CCC4)c3)ncc2C(N)=O)C1              pIC50           < 6.00
